# Experimental protocol: Soluble aggregates of transiently expressed antibodies
# Type: physicochemical
# Condition notes: Protein A purified antibody
# Text: The protein yield of these antibodies, their levels of soluble aggregates and their binding affinity to the immunogen (J1-DE3) are illustrated in (Table 6).
Reported % soluble aggregate values for a set of molecules

{"Molecule": "J1-183D variant 14: humanised/de-immunised J1-183D: J1-183D_VL_4 + J1-183D_VH_2 (antibody, V domains shown) VH: QVQLVQSGAELKKPGASVKVSCKVSGYAFTDYAIHWIRQAPGQGLEWMGIINTYYGDSKYAQKFQGRVTMTVDTSTSTAYMELSSLRSEDTAVYYCARGYDGFAYWGQGTLVTVSSASTKGP VL: DIQMTQSPSSLSASVGDRVTITCRTSENIYSYLTWYQQKPGKAPKLLIYHAKILDSGVPSRFSGSGSGTDFTLTISSLQPEDFATYYCQHHYDIPWTFGGGTKLEIKRT", "% soluble aggregate": "3.02%"}
{"Molecule": "J1-183D variant 9: humanised/de-immunised J1-183D: J1-183D_VL_3 + J1-183D_VH_1 (antibody, V domains shown) VH: QVQLVQSGAELKKPGASVKVSCKVSGYAFTDYAIHWIRQAPGQGLEWMGIINTYYGDSKYNQKFKDRVTMTVDKSTSTAYMELSSLRSEDTAVYYCARGYDGFAYWGQGTLVTVSSASTKGP VL: DIQMTQSPSSLSASVGDRVTITCRTSENIYSYLTWYQQKPGKAPKLLIYNAKILDSGVPSRFSGSGSGTDFTLTISSLQPEDFATYYCQHHYDIPWTFGGGTKLEIKRT", "% soluble aggregate": "3.49%"}

Just for reference, patent US9725518B2 is where these values come from.
